Biological target: Ecdysone receptor (Choristoneura fumiferana) (UniProt O77240)
Assay: Ratio of maximum level of gene expression (ecdysone receptor and luciferase gene) of compound to maximum level of gene expression with GSTM-E expressed as RMFI
Type: functional
Classification field: enter yes (1) for Ratio values not below 0.9, no (0) for values below it.

For orientation, consider the following solved cases.
{"columns": ["molecule", "class"],
 "data": [
  ["CCC(CC)(NC(=O)c1cccc(OC)c1C)C(=O)c1cc(C)cc(C)c1", "no (0)"],
  ["COc1ccccc1C(=O)C1(NC(=O)c2cccc(OC)c2C)CCCC1", "no (0)"],
  ["COc1cccc(C(=O)NN(C(=O)c2cc(C)cc(C)c2)C(C)(C)C)c1C [METHOXYFENOZIDE]", "yes (1)"],
  ["COc1ccccc1C(=O)C1(NC(=O)c2cccc(OC)c2C)CCCCC1", "no (0)"],
  ["COc1cccc(C(=O)NC2(C(=O)c3cc(C)cc(C)c3)CCS(=O)(=O)CC2)c1C", "no (0)"],
  ["COc1ccccc1C(=O)C1(NC(=O)c2cccc(OC)c2C)CCCCCC1", "no (0)"],
  ["COc1cccc(C(=O)NC2(C(=O)c3cc(C)cc(C)c3)CC2)c1C", "no (0)"],
  ["COc1cccc(C(=O)NC2(C(=O)c3cc(C)cc(C)c3)CCCC2)c1C", "no (0)"]
]}

Now for a further molecule.
Would you say CCc1c(OC)cccc1C(=O)NN(C(=O)c1cc(C)cc(C)c1)C(C)(C)C shows Ratio at minimum 0.9?
yes (1)

###

Biological target: UniProt:O77240
Sequence (O77240 whole entry): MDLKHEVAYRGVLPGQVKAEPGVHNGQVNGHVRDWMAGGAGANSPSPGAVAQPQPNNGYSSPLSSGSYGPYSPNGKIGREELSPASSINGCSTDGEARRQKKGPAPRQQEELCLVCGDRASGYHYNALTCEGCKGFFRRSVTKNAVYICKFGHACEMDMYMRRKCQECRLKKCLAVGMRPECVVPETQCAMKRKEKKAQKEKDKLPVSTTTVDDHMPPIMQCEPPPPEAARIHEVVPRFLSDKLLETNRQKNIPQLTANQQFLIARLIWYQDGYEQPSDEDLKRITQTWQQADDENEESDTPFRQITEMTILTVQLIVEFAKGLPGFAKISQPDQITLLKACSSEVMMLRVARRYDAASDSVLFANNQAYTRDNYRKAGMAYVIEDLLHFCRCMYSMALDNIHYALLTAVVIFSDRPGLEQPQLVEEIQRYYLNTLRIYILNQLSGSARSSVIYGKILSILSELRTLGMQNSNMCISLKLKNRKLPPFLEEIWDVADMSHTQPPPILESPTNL
Test: Dose affording 50% of maximum transactivation for ecdysone receptor from Choristoneura fumiferana (CfEcR) and a luciferase reporter gene in CHO cells
pEC50: −log10 of the molar value.
Response field class: string, computed from recorded pEC50 by ranges LOW: < 5; MEDIUM: ≥ 5 and < 6; HIGH: ≥ 6

Field: example entries. Status: answers known.
{"columns": ["entry smiles", "class"],
 "data": [
  ["COc1cccc(C(=O)NC2(C(=O)c3cc(C)cc(C)c3)CCCCCC2)c1C", "MEDIUM"],
  ["CCc1c(C(=O)NC2(C(=O)c3cc(C)cc(C)c3)CCCCC2)ccc2c1OCCO2", "HIGH"],
  ["COc1ccccc1C(=O)C1(NC(=O)c2cccc(OC)c2C)CCCCCC1", "MEDIUM"],
  ["COc1cccc(C(=O)NC2(C(=O)c3cc(C)cc(C)c3)CCS(=O)(=O)CC2)c1C", "LOW"]
]}

Tag the class for COc1cccc(C(=O)NC2(C(=O)c3cc(C)cc(C)c3)CCCC2)c1C
MEDIUM

Then this molecule: COc1cccc(C(=O)NC(C)(C)C(=O)c2cc(C)cc(C)c2)c1C
LOW

###

Biological target: Ecdysone receptor (Bombyx mori) (UniProt P49881)
Experiment: Ratio of maximum level of gene expression (ecdysone receptor and beta-galactosidase receptor) of compound to maximum level of gene expression with GSTM-E expressed as RMFI
Type: functional
experimental readout: Ratio
// return a plain number; no unit text

May I ask what Ratio has been recorded for CCc1c(OC)cccc1C(=O)NN(C(=O)c1cc(C)cc(C)c1)C(C)(C)C ?
1

Moving on to the next molecule: CCc1c(OC)cccc1C(=O)NC1(C(=O)c2cc(C)cc(C)c2)CCCCC1
0.85

###

Biological target: Ecdysone receptor (Bombyx mori)
Sequence (P49881 whole entry): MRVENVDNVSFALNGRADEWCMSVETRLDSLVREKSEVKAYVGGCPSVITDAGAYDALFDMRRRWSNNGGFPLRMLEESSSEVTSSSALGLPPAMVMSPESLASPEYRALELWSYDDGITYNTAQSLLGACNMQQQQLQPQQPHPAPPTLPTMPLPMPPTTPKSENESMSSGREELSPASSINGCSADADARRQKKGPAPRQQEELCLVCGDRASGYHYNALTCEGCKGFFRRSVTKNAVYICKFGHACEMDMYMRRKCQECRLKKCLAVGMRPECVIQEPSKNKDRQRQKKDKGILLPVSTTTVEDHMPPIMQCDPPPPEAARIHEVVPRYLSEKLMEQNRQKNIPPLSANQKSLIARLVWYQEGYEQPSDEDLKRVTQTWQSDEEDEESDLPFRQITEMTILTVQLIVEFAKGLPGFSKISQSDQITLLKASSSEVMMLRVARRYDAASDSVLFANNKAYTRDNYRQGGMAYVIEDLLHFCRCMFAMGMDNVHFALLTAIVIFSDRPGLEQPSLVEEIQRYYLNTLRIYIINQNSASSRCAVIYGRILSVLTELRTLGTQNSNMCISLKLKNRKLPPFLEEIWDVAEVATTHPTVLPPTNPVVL
Assay: Dose affording 50% of maximum transactivation for ecdysone receptor from Bombyx mori (BmEcR) and a beta-galactosidase reporter gene in HEK293 cell-line
We label by threshold. Values of EC50 strictly beneath 4000 nM are fulfilled. Values of 4000 nM and up are not fulfilled.

Example results:
{"columns": ["compound", "tested on", "class"],
 "data": [
  ["COc1cccc(C(=O)NC2(C(=O)c3cc(C)cc(C)c3)CC2)c1C", "Ecdysone receptor (Bombyx mori)", "not fulfilled"],
  ["COc1cccc(C(=O)NC2(C(=O)c3cc(C)cc(C)c3)CCC2)c1C", "Ecdysone receptor (Bombyx mori)", "not fulfilled"]
]}

Would you kindly verify if EC50 of CCc1c(C(=O)NC2(C(=O)c3cc(C)cc(C)c3)CCCCC2)ccc2c1OCCO2 is strictly less than 4000 nM?
fulfilled

Further, for COc1cccc(C(=O)NC(C)(C)C(=O)c2cc(C)cc(C)c2)c1C ?
not fulfilled

Same thing, different compound: CCc1c(OC)cccc1C(=O)NC1(C(=O)c2cc(C)cc(C)c2)CCCCC1
fulfilled

And COc1cccc(C(=O)NC2(C(=O)c3cc(C)cc(C)c3)CCCC2)c1C ?
fulfilled

Consider next the compound CCc1ccc(C(=O)NC2(C(=O)c3cc(C)cc(C)c3)CCCCC2)cc1 in the same way.
fulfilled

// next record COc1ccccc1C(=O)C1(NC(=O)c2cccc(OC)c2C)CCCCC1
fulfilled

###

Target: UniProtKB O77240
Experiment: Ratio of maximum level of gene expression (ecdysone receptor and luciferase gene) of compound to maximum level of gene expression with GSTM-E expressed as RMFI
Format: functional
experimental readout: Ratio
Reply with just the number.

Would you please look over these solved cases?
{"columns": ["entry smiles", "tested on", "Ratio"],
 "data": [
  ["CCc1c(OC)cccc1C(=O)NC1(C(=O)c2cc(C)cc(C)c2)CCCCC1", "UniProtKB O77240", 0.89],
  ["COc1cccc(C(=O)NC2(C(=O)c3cc(C)cc(C)c3)CCCCCC2)c1C", "UniProtKB O77240", 0.88],
  ["Cc1cc(C)cc(C(=O)C2(NC(=O)c3ccc4c(c3C)OCO4)CCCCC2)c1", "UniProtKB O77240", 0.91],
  ["COc1cccc(C(=O)NC2(C(=O)c3cc(C)cc(C)c3)CCC2)c1C", "UniProtKB O77240", 0.89],
  ["COc1cccc(C(=O)NC2(C(=O)c3cc(C)cc(C)c3)CCCCC2)c1C", "UniProtKB O77240", 0.96]
]}

Param item = COc1cccc(C(=O)NC2(C(=O)c3cc(C)cc(C)c3)CCSCC2)c1C ; retrieve measured Ratio.
0.85

Same again, this time with CCc1c(C(=O)NC2(C(=O)c3cc(C)cc(C)c3)CCCCC2)ccc2c1OCCO2
0.91

Next: COc1cccc(C(=O)NC(C)(C)C(=O)c2cc(C)cc(C)c2)c1C
0.29

Moving on to the next compound: COc1cccc(C(=O)NC2(C(=O)c3cc(C)cc(C)c3)CCOCC2)c1C
0.96

###

Target: Ecdysone receptor (Choristoneura fumiferana)
Experiment: Dose affording 50% of maximum transactivation for ecdysone receptor from Choristoneura fumiferana (CfEcR) and a luciferase reporter gene in CHO cells
experimental readout: pEC50
Quick note: pEC50 values are minus log10 of concentrations in mol/L.

Which measured pEC50 belongs to CCc1c(OC)cccc1C(=O)NC1(C(=O)c2cc(C)cc(C)c2)CCCCC1 , tested on Ecdysone receptor (Choristoneura fumiferana)?
5.90

Same for COc1cccc(C(=O)NC2(C(=O)c3cc(C)cc(C)c3)CCC2)c1C
5.00

Now the same for COc1cccc(C(=O)NC2(C(=O)c3cc(C)cc(C)c3)CCOCC2)c1C
5.00

Then this molecule: COc1cccc(C(=O)NC2(C(=O)c3cc(C)cc(C)c3)CCCCC2)c1C
5.95

Values from ChEMBL document CHEMBL1136517
